# Tested on: Saccharomyces cerevisiae BY4741 SeMeCo community
# test_summary: z-score of subpopulation abundance vs DMSO median, subpopulation auxotrophic for HLU; higher = larger share of this subpopulation than in DMSO controls
# protocol_conditions: 10 µM; 24 h; SM minimal medium; subpopulation (auxotrophy): HLU
Structures can show the parent of a compound that is named as a salt.
observed_property: z-score of subpopulation abundance
Answers are plain numbers.

- compound: "COc1ccc(C[C@H](N)C(=O)N[C@H]2[C@@H](O)[C@H](n3cnc4c(N(C)C)ncnc43)O[C@@H]2CO)cc1 [Puromycin 2HCl]"
  z-score of subpopulation abundance: -0.44
- compound: "O=C1CN2Cc3c(ccc(Cl)c3Cl)N=C2N1 [Anagrelide HCl]"
  z-score of subpopulation abundance: 0.58
- compound: "Cc1nc(NC(=O)N2CCC[C@H]2C(N)=O)sc1-c1ccnc(C(C)(C)C(F)(F)F)c1 [Alpelisib (BYL719)]"
  z-score of subpopulation abundance: -0.75

[Q] Requested read-out: z-score of subpopulation abundance. Entry: CC1(C)S[C@@H]2[C@H](NC(=O)COc3ccccc3)C(=O)N2[C@H]1C(=O)O [Penicillin V potassium salt]
[A] -0.94

====

# System: Saccharomyces cerevisiae BY4741 SeMeCo community
# test_summary: z-score of subpopulation abundance vs DMSO median, subpopulation auxotrophic for HM; higher = larger share of this subpopulation than in DMSO controls
# protocol_conditions: 10 µM; 24 h; SM minimal medium; subpopulation (auxotrophy): HM
Counter-ions that a name gives are not always drawn.
z-score of subpopulation abundance of 0.4 or higher: yes. Under 0.4: no.

Worked cases, answers included:
- molecule: "CCC[C@@H]1C[C@@H](C(=O)N[C@@H]([C@H]2O[C@H](SC)[C@H](O)[C@@H](O)[C@H]2O)[C@H](C)Cl)N(C)C1 [Clindamycin HCl]"
  label_value: "no"
- molecule: "CN(CCN1CCC(OC(=O)Nc2ccccc2-c2ccccc2)CC1)C(=O)c1ccc(CN2CCC(C(N)=O)CC2)cc1"
  label_value: "yes"
- molecule: "CCC(C)n1ncn(-c2ccc(N3CCN(c4ccc(OCC5COC(Cn6cncn6)(c6ccc(Cl)cc6Cl)O5)cc4)CC3)cc2)c1=O (stereo unspecified)"
  label_value: "yes"
- molecule: "CCC(=O)O[C@@H]1CC(=O)O[C@H](C)C/C=C/C=C/[C@H](O)[C@H](C)C[C@H](CC=O)[C@H](O[C@@H]2O[C@H](C)[C@@H](O[C@H]3C[C@@](C)(O)[C@@H](OC(=O)CC)[C@H](C)O3)[C@H](N(C)C)[C@H]2O)[C@H]1OC"
  label_value: "yes"
- molecule: "OC(c1cc(C(F)(F)F)nc2c(C(F)(F)F)cccc12)C1CCCCN1 (stereo unspecified) [Mefloquine HCl]"
  label_value: "yes"

Next up:
[Q] Given CN(C)CCC[C@@]1(c2ccc(F)cc2)OCc2cc(C#N)ccc21 [Escitalopram Oxalate] , state whether its z-score of subpopulation abundance is at least 0.4.
[A] no

====

Would you mind telling me the reported z-score of subpopulation abundance of each entry?
# System: Saccharomyces cerevisiae BY4741 SeMeCo community
# test_summary: z-score of subpopulation abundance vs DMSO median, subpopulation auxotrophic for LUM; higher = larger share of this subpopulation than in DMSO controls
# protocol_conditions: 10 µM; 24 h; SM minimal medium; subpopulation (auxotrophy): LUM
Where a name gives a salt, the structure may show the parent alone.
Numbers only.

Use these answered entries as a reference point.
- compound: "CCC(=O)NS(=O)(=O)c1ccc(-c2c(-c3ccccc3)noc2C)cc1 [Parecoxib Sodium]"
  z-score of subpopulation abundance: 1.18
- compound: "CN1CCC(=C2c3ccccc3C=Cc3ccccc32)CC1 [Cyproheptadine hydrochloride]"
  z-score of subpopulation abundance: -0.73
- compound: "CC[C@H](c1ccc(O)cc1)[C@@H](CC)c1ccc(O)cc1"
  z-score of subpopulation abundance: -1.39

Record z-score of subpopulation abundance for all entries; do not skip any.
1. CO/N=C(\C(=O)N[C@@H]1C(=O)N2C(C(=O)O)=C(CSc3nc(C)c(CC(=O)O)s3)CS[C@H]12)c1csc(N)n1 [Cefodizime Sodium]
2. CC1(C)S[C@@H]2[C@H](NC(=O)[C@H](N)c3ccccc3)C(=O)N2[C@H]1C(=O)O [Ampicillin sodium]
3. Cc1onc(-c2ccccc2)c1C(=O)N[C@@H]1C(=O)N2[C@@H]1SC(C)(C)[C@@H]2C(=O)O [Oxacillin sodium monohydrate]
4. CCn1cc(C(=O)O)c(=O)c2cc(F)c(N3CCN(C)CC3)cc21 [Pefloxacin Mesylate]

[A]
1: -0.74; 2: -0.14; 3: 0.47; 4: 0.18

====

# Tested on: Saccharomyces cerevisiae BY4741 SeMeCo community
# test_summary: z-score of subpopulation abundance vs DMSO median, subpopulation auxotrophic for LUM; higher = larger share of this subpopulation than in DMSO controls
# protocol_conditions: 10 µM; 24 h; SM minimal medium; subpopulation (auxotrophy): LUM
Where a name gives a salt, the structure may show the parent alone.
Please note: Criterion met applies when z-score of subpopulation abundance is -0.2 or greater, and Criterion not met applies otherwise.

Reference set (6 entries):
- compound: "Nc1ccc(S(=O)(=O)c2ccc(N)cc2)cc1"
  test_target: "Saccharomyces cerevisiae BY4741 SeMeCo community"
  label_value: "Criterion met"
- compound: "OC(c1ccccc1)(c1ccccc1)C12CC[N+](CCOCc3ccccc3)(CC1)CC2 [Umeclidinium bromide]"
  test_target: "Saccharomyces cerevisiae BY4741 SeMeCo community"
  label_value: "Criterion not met"
- compound: "CC(=O)OC1CC2(C)C(CC(O)C3C4(C)CCC(O)C(C)C4CCC32C)C1=C(CCC=C(C)C)C(=O)O (stereo not drawn)"
  test_target: "Saccharomyces cerevisiae BY4741 SeMeCo community"
  label_value: "Criterion met"
- compound: "Cc1onc(-c2ccccc2)c1-c1ccc(S(N)(=O)=O)cc1"
  test_target: "Saccharomyces cerevisiae BY4741 SeMeCo community"
  label_value: "Criterion not met"
- compound: "C[C@]12CCC(=O)C=C1[C@@H]1C[C@@H]1[C@H]1[C@@H]3[C@@H]4C[C@@H]4[C@@]4(CCC(=O)O4)[C@@]3(C)CC[C@@H]12"
  test_target: "Saccharomyces cerevisiae BY4741 SeMeCo community"
  label_value: "Criterion met"
- compound: "Cc1cc(/C=C/c2ccc3cc(N(C)C)ccc3[n+]2C)c(C)n1-c1ccccc1"
  test_target: "Saccharomyces cerevisiae BY4741 SeMeCo community"
  label_value: "Criterion met"

Kindly review the next compound as well.
[Q] Quick check: does CCN(CC)CCNC(=O)c1cc(Cl)c(N)cc1OC [Metoclopramide HCl] have z-score of subpopulation abundance greater than or equal to -0.2?
[A] Criterion not met

====

# Tested on: Saccharomyces cerevisiae BY4741 SeMeCo community
# test_summary: z-score of subpopulation abundance vs DMSO median, subpopulation auxotrophic for L; higher = larger share of this subpopulation than in DMSO controls
# protocol_conditions: 10 µM; 24 h; SM minimal medium; subpopulation (auxotrophy): L
Where a name gives a salt, the structure may show the parent alone.
Entry flag: criterion met if z-score of subpopulation abundance reaches 0.02; criterion not met if it does not.

As a guide, the following entries are already answered.
- compound: "CN1CCN(CCCN2c3ccccc3Sc3ccc(C(F)(F)F)cc32)CC1 [Trifluoperazine 2HCl]"
  test_target: "Saccharomyces cerevisiae BY4741 SeMeCo community"
  label_value: "criterion not met"
- compound: "CCN(CC)CCOC(=O)c1ccc(N)cc1Cl [Chloroprocaine HCl]"
  test_target: "Saccharomyces cerevisiae BY4741 SeMeCo community"
  label_value: "criterion met"

[Q] Confirm if z-score of subpopulation abundance reported for the compound COc1cc2c(cc1OC)C(=O)C(CC1CCN(Cc3ccccc3)CC1)C2 (stereo unspecified) [Donepezil] is 0.02 or above.
[A] criterion met

[Q] Kindly determine if z-score of subpopulation abundance recorded for OC(c1ccccc1)(c1ccccc1)C12CC[N+](CCOCc3ccccc3)(CC1)CC2 [Umeclidinium bromide] is above or exactly 0.02.
[A] criterion met

[Q] Check the entry O=C1CCc2ccc(OCCCCN3CCN(c4cccc(Cl)c4Cl)CC3)cc2N1 [Aripiprazole] : does z-score of subpopulation abundance equal or exceed 0.02?
[A] criterion met

[Q] Is the recorded value of z-score of subpopulation abundance equal to or greater than 0.02 for this compound? C=CC1=C(C(=O)O)N2C(=O)[C@@H](NC(=O)/C(=N\OCC(=O)O)c3csc(N)n3)[C@H]2SC1 [Cefixime]
[A] criterion not met

[Q] Form field: z-score of subpopulation abundance at least 0.02? Entry: CC(=O)O[C@H]1C[C@@H]2CC[C@@H]3[C@H](CC[C@@]4(C)[C@H]3C[C@H]([N+]3(C)CCCCC3)[C@@H]4OC(C)=O)[C@@]2(C)C[C@@H]1N1CCCCC1 [Vecuronium Bromide]
[A] criterion met

[Q] Has CN1[C@@H]2CC[C@H]1C[C@@H](OC(=O)c1c[nH]c3ccccc13)C2 [Tropisetron] a recorded z-score of subpopulation abundance greater than or equal to 0.02?
[A] criterion met

[Q] Does z-score of subpopulation abundance meet or surpass 0.02 for O=C(CCCN1CC=C(n2c(=O)[nH]c3ccccc32)CC1)c1ccc(F)cc1 [Droperidol] ?
[A] criterion met

[Q] Please check the record C[C@H]1NCc2cc(-c3ccc4c(=O)c(C(=O)O)cn(C5CC5)c4c3OC(F)F)ccc21 [Garenoxacin] and state if its z-score of subpopulation abundance is at or above 0.02.
[A] criterion not met

[Q] Please tell me: is the compound CC[C@H](C)C(=O)O[C@H]1C[C@@H](C)C=C2C=C[C@H](C)[C@H](CC[C@@H]3C[C@@H](O)CC(=O)O3)[C@H]21 [Lovastatin] at or over 0.02 in terms of z-score of subpopulation abundance?
[A] criterion not met

[Q] Could you verify whether the entry CC(=O)NC[C@H]1CN(c2ccc(N3CCOCC3)c(F)c2)C(=O)O1 [Linezolid] shows z-score of subpopulation abundance of no less than 0.02?
[A] criterion not met

[Q] Threshold query (z-score of subpopulation abundance >= 0.02) on Oc1c(Cl)cc(Cl)c2cccnc12 [Chloroxine]
[A] criterion not met

[Q] Is z-score of subpopulation abundance at least 0.02? Consider CC[C@@H]([C@H](C)O)n1ncn(-c2ccc(N3CCN(c4ccc(OC[C@@H]5CO[C@@](Cn6cncn6)(c6ccc(F)cc6F)C5)cc4)CC3)cc2)c1=O [Posaconazole]
[A] criterion not met

[Q] Item O=C1NCC2(CCN(CCc3ccccc3)CC2)O1 [Fenspiride HCl] with z-score of subpopulation abundance of 0.02 or above?
[A] criterion not met
